# TGT: hVR1 (Homo sapiens (Human), UniProt Q8NER1)
# Sequence (Q8NER1 whole entry): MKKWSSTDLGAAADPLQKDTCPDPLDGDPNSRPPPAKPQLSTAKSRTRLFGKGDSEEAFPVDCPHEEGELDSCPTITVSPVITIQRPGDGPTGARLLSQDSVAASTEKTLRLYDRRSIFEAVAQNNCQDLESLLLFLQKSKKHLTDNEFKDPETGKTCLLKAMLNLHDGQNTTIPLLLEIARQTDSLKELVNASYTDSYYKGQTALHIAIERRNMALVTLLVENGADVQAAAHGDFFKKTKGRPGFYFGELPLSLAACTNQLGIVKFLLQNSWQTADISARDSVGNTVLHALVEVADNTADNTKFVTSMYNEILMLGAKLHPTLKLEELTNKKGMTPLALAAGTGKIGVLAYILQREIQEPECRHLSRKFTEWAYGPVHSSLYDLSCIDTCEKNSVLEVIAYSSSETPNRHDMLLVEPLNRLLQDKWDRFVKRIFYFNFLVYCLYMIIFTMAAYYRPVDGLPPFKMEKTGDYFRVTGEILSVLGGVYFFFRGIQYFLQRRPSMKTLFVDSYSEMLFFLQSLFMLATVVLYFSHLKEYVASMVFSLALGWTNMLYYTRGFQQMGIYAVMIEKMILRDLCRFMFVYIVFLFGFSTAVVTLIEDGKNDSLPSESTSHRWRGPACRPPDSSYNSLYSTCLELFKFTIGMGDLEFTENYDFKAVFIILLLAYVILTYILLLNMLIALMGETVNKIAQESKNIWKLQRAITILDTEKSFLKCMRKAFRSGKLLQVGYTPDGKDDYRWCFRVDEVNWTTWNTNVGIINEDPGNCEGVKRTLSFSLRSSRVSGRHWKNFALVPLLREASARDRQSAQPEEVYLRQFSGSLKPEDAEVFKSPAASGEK
# RUN DESCRIPTION: FLIPR assay human VR1, 45° C. stimulus
# Type: cell-based
# EXPERIMENTAL SETUP: read-out: IC50 (human being) [nM], 45° C.
# Text: The agonistic or antagonistic effect of the substances to be tested on the vanilloid receptor 1 (VR1) can also be determined using the following assay. In this assay, the influx of Ca^2+ through the channel is quantified with the aid of a Ca^2+-sensitive dye (type Fluo-4, Molecular Probes Europe BV, Leiden, the Netherlands) in a fluorescent imaging plate reader (FLIPR, Molecular Devices, Sunnyvale, USA). […]
Mark yes (1) only when IC50 stays strictly below 30 nM. Values equal to the cut-off are no (0).

Reference set (4 entries):
COMPOUND: CCCCCCn1nc(C(C)(C)C)cc1CNC(=O)C(C)c1ccc(NS(C)(=O)=O)c(F)c1 (centres unmarked) [Example 5]
TGT: hVR1 (Homo sapiens (Human), UniProt Q8NER1)
GROUP LABEL: no (0)
//
COMPOUND: COc1cc(C(C)C(=O)NCc2cc(C(F)(F)F)nn2-c2cccc(Cl)c2)ccc1NS(C)(=O)=O (centres unmarked) [Example 28]
TGT: hVR1 (Homo sapiens (Human), UniProt Q8NER1)
GROUP LABEL: no (0)
//
COMPOUND: C[C@H](C(=O)NCc1cc(C(F)(F)F)nn1-c1ccc(Cl)cc1)c1ccc(NS(C)(=O)=O)c(F)c1 [Example 23]
TGT: hVR1 (Homo sapiens (Human), UniProt Q8NER1)
GROUP LABEL: yes (1)
//
COMPOUND: CC(C(=O)NCc1cc(C(F)(F)F)nn1-c1ccc(Cl)cc1)c1ccc(NS(C)(=O)=O)c(F)c1 (centres unmarked) [Example 21]
TGT: hVR1 (Homo sapiens (Human), UniProt Q8NER1)
GROUP LABEL: yes (1)

Please turn your attention to the following entry.
Confirm or reject: IC50 of CC(C(=O)NCc1cc(C(C)(C)C)nn1-c1ccc(F)c(Cl)c1)c1ccc(NS(C)(=O)=O)c(F)c1 (centres unmarked) [Example 18] lies strictly below 30 nM
yes (1)

The measured values listed here are drawn from patent US9120756B2.
